# procedure summary: gradient 5% acetonitrile 3 min, to 50% in 2 min, to 85% in 15 min, held 3 min, 100 µL/min
# experimental context: column: Zorbax Extend-C18 2.1 x 50 mm; eluents: water / acetonitrile, 0.1% formic acid
Cut-off 900 s on RP-LC retention time, inclusive. At or above means met; below means not met.

CN1C(=O)c2cc(C(=O)NCc3cccc(Br)c3)nn2CC1(C)C(=O)NC1CCCC1 (stereo not given)    not met
Cn1nc(-c2nc(C(C)(C)C)no2)ccc1=O    not met
Cc1nn(CC(=O)N2CCCCCC2)c(=O)c2c(-n3cccc3)n(-c3ccc(Cl)cc3)nc12    met

Please check the record CN(C)C(=O)c1ccc2c(c1)CCN2C(=O)C1CCCC1 and state if its RP-LC retention time is at or above 900 s. not met

Follow-up item: O=C1OCC/C1=C\c1ccc(O)cc1 not met

Follow-up item: CCCn1ccc2sc(C)c(C(=O)NC(C)C)c2c1=O not met

====

Consider the following molecules and their measured RP-LC retention time readings.
# procedure summary: gradient 5% acetonitrile 3 min, to 50% in 2 min, to 85% in 15 min, held 3 min, 100 µL/min
# experimental context: column: Zorbax Extend-C18 2.1 x 50 mm; eluents: water / acetonitrile, 0.1% formic acid
# number only, unit s dropped from output

Cc1cccn2c(Nc3ccc4c(c3)OCCO4)c(-c3ccccc3O)nc12    719
O=C(c1noc2ccc(S(=O)(=O)N3CCN(c4ccccn4)CC3)cc12)N1CCCCC1    703
CC(C)CN1C(=O)c2cccn2CC1CNC(=O)c1cccs1 (configuration not stated)    715
CCC(C)NC(=O)c1ccc(-c2ccc(N3CCSCC3)nc2)cc1 (configuration not stated)    711
Cc1ccc(Nc2nc(-c3ccc(F)cc3F)cs2)nc1    1070

I have this molecule here, Cn1cc(-c2nc(C(=O)Nc3ccc(F)cc3Cl)cs2)c2cccnc21 , and I need its recorded RP-LC retention time. 1210

Follow-up item: COc1ccc2nc(C(=O)NCc3cccc(F)c3)cn2n1 778

====

# procedure summary: gradient 5% acetonitrile 3 min, to 50% in 2 min, to 85% in 15 min, held 3 min, 100 µL/min
# experimental context: column: Zorbax Extend-C18 2.1 x 50 mm; eluents: water / acetonitrile, 0.1% formic acid
Cut-off 700 s on RP-LC retention time, inclusive. At or above means 1.0; below means 0.0.

COc1ccc(-c2nnc(-c3cc(S(=O)(=O)NCC4CCCO4)ccc3Cl)o2)cc1 (stereo not drawn)    1.0
COc1ccc(C2CC(=O)c3c(C)nc(N4CCN(CCO)CC4)nc3C2)cc1 (stereo not drawn)    0.0
Cc1cc(N2CCN(C)CC2)nc2ccc(NC(=O)Nc3ccc(F)cc3)cc12    0.0
Cc1cc(C)cc(NC(=O)Cn2nc(C(=O)N3CCOCC3)c3ccccc32)c1    1.0
CCC1CCCCN1Cc1nc(Cn2ccn3nc(-c4ccc(C)cc4)cc3c2=O)no1 (stereo not drawn)    1.0

Please check the record CCc1nc(-c2csc(S(=O)(=O)N3CCCC(C(=O)NCc4ccc(C)o4)C3)c2)no1 (stereo not drawn) and state if its RP-LC retention time is at or above 700 s. 1.0

Follow-up item: Cc1ccc(C(=O)Nc2cnc(N3CCCCCC3)nc2)s1 1.0

Follow-up item: Cc1cc2c(=O)n(CC(=O)Nc3ccc(Cl)cc3)c3cccnc3n2n1 1.0

Follow-up item: Cc1ccc(NS(=O)(=O)c2c[nH]c3ncccc23)cc1F 1.0

Follow-up item: CCSc1ccccc1C(=O)N1CCN(c2ccc(-c3ccccn3)nn2)CC1 0.0

Follow-up item: COC(=O)c1cc(OCC(=O)Nc2ccc3c(c2)OCO3)c2cc(F)ccc2n1 1.0

====

# procedure summary: gradient 5% acetonitrile 3 min, to 50% in 2 min, to 85% in 15 min, held 3 min, 100 µL/min
# experimental context: column: Zorbax Extend-C18 2.1 x 50 mm; eluents: water / acetonitrile, 0.1% formic acid
quantity measured: RP-LC retention time (s)
# number only, unit s dropped from output

Cc1cccc(Cn2c(=O)n(CCNC(=O)C3CCOC3)c3ncccc32)c1 (stereo not given)    698
NC(=O)c1ccc(NC(=O)C2CCN(c3cc(N4CCCCC4)ncn3)CC2)cc1    595
Cc1ccc2c(Nc3ccc(C(C)C)cc3)c(C(=O)N3CCC(C)CC3)cnc2n1    737

I have this compound here, CCCS(=O)(=O)c1nc2ccc(NS(=O)(=O)c3ccccc3F)cc2s1 , and I need its recorded RP-LC retention time. 882

Follow-up item: Cn1cccc1C(=O)C(=O)Nc1ccc(F)cc1Cl 1070

Follow-up item: CCC(=O)N1CCc2ccccc2C1C(=O)N1CCN(c2ccccc2)CC1 (stereo not given) 852

Follow-up item: CC(C)(C)NC(=O)NC1CCN(C(=O)c2ccccc2)C1 (stereo not given) 683

Follow-up item: Cn1cc(CN2CCC(C(=O)NCCc3ccco3)CC2)c2cc(Cl)ccc21 679

Follow-up item: Nc1cc(C2CCN(C(=O)c3nccc4ccccc34)CC2)no1 647

Follow-up item: COC(=O)N1CCN(CCNC(=O)c2cccc3ccccc23)CC1 542

Follow-up item: O=S(=O)(Nc1ccccc1F)c1ccc(-c2nnc(C3CCC3)o2)o1 856

Follow-up item: CCC1CCCCN1CCNC(=O)Cn1c(=O)n(-c2ccccc2)c2ncccc21 (stereo not given) 597

Follow-up item: COc1ccc(OC)c(-c2cn3ccn(-c4cc(C)cc(C)c4)c(=O)c3n2)c1 975

Follow-up item: CCC(C)NC(=O)Cn1ncc2c(c1=O)N(C)C(=O)CS2 (stereo not given) 606

====

Consider the following compounds and their measured RP-LC retention time readings.
# procedure summary: gradient 5% acetonitrile 3 min, to 50% in 2 min, to 85% in 15 min, held 3 min, 100 µL/min
# experimental context: column: Zorbax Extend-C18 2.1 x 50 mm; eluents: water / acetonitrile, 0.1% formic acid
Write the quantity with the unit trailing the number.

CN(C)S(=O)(=O)c1ccc2c(c1)Cc1cc(S(=O)(=O)N(C)C)ccc1-2    820 s
Cc1ccn2c(NC(=O)COc3ccc(Cl)cc3)c(-c3ccc(F)cc3)nc2c1    759 s
CCOC(=O)c1ccc(N2C=C(C(=O)OC)S(=O)(=O)c3ccccc32)cc1    893 s
CCc1noc(NC(C)=O)c1-c1ccc(C)c(S(=O)(=O)Nc2cc(C)ccc2C)c1    900 s
CCCCN1C(=O)C(C)(C(=O)NCc2ccccc2C)Oc2cccnc21 (stereo not given)    1050 s
O=C(NC1CCCCCC1)C1CCN(S(=O)(=O)c2cc(C(=O)N3CCCCCC3)cs2)CC1    956 s
CCc1nc2c(c(=O)n1CC(=O)Nc1cc(C)ccc1C)CN(Cc1ccccc1)CC2    679 s
COc1ccccc1CNC(=O)C1=C2CCCN2c2ccccc2S1(=O)=O    843 s

I have this compound here, COc1ccc(-n2nc(N3CCCC(C(=O)NCc4cccc(OC)c4)C3)ccc2=O)cc1 (stereo not given) , and I need its recorded RP-LC retention time. 763 s

Follow-up item: CCOC(=O)c1cc(S(=O)(=O)N2CCCC2C(=O)NC2CCCCCC2)cn1C (stereo not given) 968 s

====

# procedure summary: gradient 5% acetonitrile 3 min, to 50% in 2 min, to 85% in 15 min, held 3 min, 100 µL/min
# experimental context: column: Zorbax Extend-C18 2.1 x 50 mm; eluents: water / acetonitrile, 0.1% formic acid
just bin them by RP-LC retention time: range A (below 700 s), range B (700 s to below 800 s), range C (800 s or more)

Solved cases (2 shown):
CC1CCN(C(=O)C2CC(=O)N(c3ccccc3)C2)CC1 (stereo unspecified)    range B
Cn1c(CN2CCN(C(=O)NC(C)(C)C)CC2)nc2cc(C(=O)N3CCCC3)ccc21    range A

For Cc1cc(NC(=O)c2cc(=O)c3ccccc3o2)n(-c2nc(-c3ccc(F)cc3)cs2)n1 , which RP-LC retention time bin applies? range C

Follow-up item: CC1(C(=O)NCc2ccc(F)cc2)Cn2cnc(C(=O)Nc3cc(F)ccc3F)c2C(=O)N1C1CC1 (stereo unspecified) range C

Follow-up item: CCOc1cccc(-c2noc(-c3nn(-c4cccc(OC)c4)ccc3=O)n2)c1 range C

Follow-up item: C=CCn1c(=O)c2ccccc2n(Cc2nc(-c3ccccc3C)no2)c1=O range C

====

# procedure summary: gradient 5% acetonitrile 3 min, to 50% in 2 min, to 85% in 15 min, held 3 min, 100 µL/min
# experimental context: column: Zorbax Extend-C18 2.1 x 50 mm; eluents: water / acetonitrile, 0.1% formic acid
RP-LC retention time strictly less than 900 s = TRUE. Otherwise FALSE.

Quick check: RP-LC retention time of CCOc1ccc(-c2noc(-c3nc(C)no3)n2)cc1 under 900 s? FALSE

Follow-up item: O=C(Cc1cccs1)N1CCC2(CC1)N=C(c1ccc(Cl)cc1)NO2 TRUE

Follow-up item: CC(C)(C)NC(=O)N1CCCC(c2nc(CCOCC3CCOCC3)no2)C1 (stereo unspecified) TRUE

// data source = the METLIN SMRT retention time set (Domingo-Almenara et al. 2019)
